Hi there, I'd appreciate the recorded yeast fitness for every entry that follows.
B1: tRNA (parent)
chain: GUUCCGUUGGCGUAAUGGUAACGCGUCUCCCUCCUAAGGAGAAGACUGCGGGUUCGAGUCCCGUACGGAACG

Variants of: B1
Protocol Summary: yeast fitness relative to wild type (ratio to wild type); higher = fitter; tRNA-Arg(CCU), competitive growth, 37 C, YPD
This sample holds only a part of the variants without activity.

These recorded examples may help you get a feel for the data.
U28A C30U C55A | ≤ 0.5
A14C C24A | ≤ 0.5
U19A U26C C30A G67U | ≤ 0.5
U8C C27U C31A C55A G56A A65G | ≤ 0.5
U8G C24G U59A C60A | ≤ 0.5

Hi, could you look up yeast fitness for each item in my list?
1. G9A C22U C30G C61U A70U
2. U7G C11G C34U G41A C49U
3. C22A U32A C33U G39A A43C A69C
4. G10A A36U A43G C66A

Response:
1: ≤ 0.5; 2: ≤ 0.5; 3: ≤ 0.5; 4: ≤ 0.5

Taken from the RNAGym collection of RNA variant scans (doi:10.1126/science.aae0568).
